Test system: SNB-78 CNS
Experiment: NCI tumour cell line growth inhibition, 48 h
The entries below come with measured TGI values attached.

The cases that follow already have their TGI on record.
>>> result("O=C(O)CCSC(=O)Nc1ccc(N=Nc2ccccc2)cc1")
"> 100 µM"
>>> result("CC(=O)C1=CCC2c3[nH]c4ccccc4c3CCN2C1 (centres undefined)")
"> 100 µM"
>>> result("Cc1ccccc1-n1c(C)nc(-c2ccccc2)cc1=O")
"> 100 µM"

Now consider a different compound.
Entry NC(=O)c1cccc([C@@H]2O[C@H](CO)[C@@H](O)[C@H]2O)c1 , TGI reported as 24.4 µM
